- System: SW-620 colon
- assayProcedure: NCI-60 one-dose screen, 48 h (100 = growth as untreated, 0 = no growth, -100 = all killed)
- statedConditions: 10 µM unless noted
About 83,000 compounds went through this panel and 20% of them were active in at least one assay; those are over-represented in the sample as a whole.
Flag rule - growth less than 30% flags satisfied; the remaining entries get not satisfied.

>>> print(df.to_string())
                                    compound  assignedcategory
 0  C=CN(C(=O)N1CCN(c2cc3c(cc2F)c(=O)c(C(=O)O)cn3C2CC2)CC1)c1nc(-c2ccc(Cl)cc2)cs1     not satisfied
 1  CCCCCc1ccc(S(=O)(=O)Nc2cc(-c3csc(NC(C)=O)n3)ccc2N2CCN(C)CC2)cc1         satisfied
 2  CC1(C)CC[C@]2(CO)CC[C@]3(C)[C@](O)([C@H](O)C[C@@H]4[C@@]5(C)CCCNC(C)(C)[C@@H]5CC[C@]43C)[C@@H]2C1     not satisfied
 3  C=C1C(=O)O[C@H]2[C@H]1CC/C(COC(=O)NCc1ccc(Cn3c(=O)sn(-c4ccc(I)cc4)c3=O)cc1)=C\CC[C@@]1(C)O[C@@H]21         satisfied
 4  CC(C)=CC(=O)N[C@H]1CC[C@]2(C)C3CC[C@]4(C)C(C(C)N(C)C)=CCC4C3CCC2[C@H]1O (some centres undefined)         satisfied
 5  N#Cc1c(-c2ccc(Cl)cc2)nc(NN=Cc2ccc[nH]2)nc1N1CCOCC1     not satisfied
 6     Cc1nn(C)c2ncnc(N/N=C/c3cccc(O)c3O)c12         satisfied
 7  CCN(CCNc1ccc(C)c2sc3cc(Cl)ccc3c(=O)c12)CC(C)(C)O     not satisfied
 8  O=C(/C=C/C12c3ccccc3C(c3ccccc31)C1C(=O)NC(=O)C12)c1ccc(I)cc1 (centres undefined)         satisfied
 9  COc1ccc2c(c1)oc1c(C)c3c(c(C)c12)C(=O)N(CCOS(C)(=O)=O)C3=O     not satisfied
10  COc1ccc(C(O)c2cc3c(N)c(C(=O)Nc4cccc5ccccc45)sc3nc2C)cc1 (centres undefined)         satisfied
11  N#Cc1ccc(O)c(C2=NCC(c3ccc(-c4ccccc4)cc3)O2)c1 (centres undefined)         satisfied
12  COc1cc(OC)c2c(=O)c3c(CC=C(C)C)cc(OC)c(O)c3oc2c1     not satisfied
13  Cc1cc(NCCCNc2ccnc3cc(Cl)ccc23)nc(Nc2ccc(C(=O)N3CCCCC3)cc2)n1         satisfied
14  COc1ccc(C/C(C)=C(\c2ccc(O)cc2)c2ccc(OCCN3CCCCC3)cc2)cc1     not satisfied
15                               Cc1cn(C)cn1     not satisfied
16         O=[N+]([O-])c1c(O)c(Cl)cc(Cl)c1Cl     not satisfied
17  COc1cc2c(c(OC)c1OC)C(=O)CC(c1cccc(C(=O)Nc3ccc(C#N)cc3)c1)O2 (centres undefined)     not satisfied
18  CCOC(=O)/C=C1\S/C(=N\Nc2cc(=O)[nH]c3ccc(Br)cc23)N(c2ccccc2)C1=O         satisfied
